test-method-notes: plasma protein binding in human plasma
experimental-parameters: human, plasma, Plasma Protein Binding (PPB)
measure: fraction unbound

In [3]: df
Out[3]:
                                   molecule           measure  readout_number
0  CN1CCN(c2ccc(Nc3ncc(Cl)c(NC[C@H]4CCCO4)n3)cc2)CC1 [(R)-9b]  fraction unbound            0.17

* * *

test-method-notes: in vitro
experimental-parameters: rat, plasma, % Unbound
measure: fraction unbound at 6 h

>>> df
                                   molecule                  measure  result
0  CC(=O)CC(c1ccccc1)c1c(O)c2ccccc2oc1=O (stereo not shown) [warfarin]  fraction unbound at 6 h  0.0069

* * *

test-method-notes: in vitro
experimental-parameters: rat, % Recovery
measure: recovery

>>> print(df.to_string())
                                   molecule   measure  result
0  CC(=O)CC(c1ccccc1)c1c(O)c2ccccc2oc1=O (stereo not shown)  recovery   86.7%

* * *

test-method-notes: in vitro
experimental-parameters: human, plasma, % Remaining at 6 hr
measure: remaining at 6 h (%)

                                   compound  readout_number
0  CC(=O)CC(c1ccccc1)c1c(O)c2ccccc2oc1=O (stereo not shown) [warfarin]            97.8

* * *

test-method-notes: in vitro
experimental-parameters: human, plasma, % Unbound
measure: fraction unbound

In [3]: df
Out[3]:
                                   compound  readout_number
0  CC(=O)CC(c1ccccc1)c1c(O)c2ccccc2oc1=O (stereo not shown)          0.0147

* * *

test-method-notes: in vitro
experimental-parameters: human, % Recovery
measure: recovery (%)

                                   compound  unit_abbreviation  readout_number
0  CC(=O)CC(c1ccccc1)c1c(O)c2ccccc2oc1=O (stereo not shown) [warfarin]                  %            92.3
